- assayed.system: T1, human ERBB3 His tagged, monomeric (human, UniProt P21860 20-643, biotinylated in the Alphascreen assays (sites not given))
- T1 construct: Used unbiotinylated as Biacore analyte and biotinylated in Alphascreen; treated as one molecule; also called human ERBB3-His (Acrobiosystems); biotinylated monomeric human ERBB3
- assay.notes: SPR (Biacore), captured IgG, monomeric ERBB3-His analyte
Recorded Kd, one value per entry.
Give just the number in nM; leave the unit off.

Use the examples below as a reference point.
binder="09D12 IgG1null (antibody, V domains shown, Human IgG1null and human Ckappa) VH: QVQLVESGGGLVKPGGSLRLSCAASGFTFSDYGMSWIRQAPGKGLEWVSTISDGGSYTYYADSVKGRFTISRDNAKNSLYLQMNSLRAEDTAVYYCAREYGDYDGFDYWGQGTLVTVSS VL: DIQMTQSPSSLSASVGDRVTITCRASQSISSYLNWYQQKPGKAPKLLIYAASSLDSGVPSRFSGSGSGTDFTLTISSLQPEDFATYYCLQYDSTPLTFGGGTKVEIK" reported_property=Kd observed_result=0.27
binder="h24C05 IgG1null (antibody, V domains shown, Human IgG1null (L234A, L235A, G237A) and human Ckappa; also called humanized 24C05) VH: QVQLVESGGGLVKPGGSLRLSCAASGFTFSDYAMSWIRQAPGKGLEWVSTISDGGTYTYYPDNVKGRFTISRDNAKNSLYLQMNSLRAEDTAVYYCAREWGDYDGFDYWGQGTLVTVSS VL: DIQMTQSPSSLSASVGDRVTITCRASQEISGYLSWFQQKPGKAPKSLIYAASTLDSGVPSRFSGSGSGTDFTLTISSLQPEDFATYYCLQYDSYPYTFGGGTKVEIK" reported_property=Kd observed_result=0.039

# input Need Kd, item MH3 IgG1null (antibody, V domains shown, Designer (Maximally Humanized) clone; Human IgG1null and human Ckappa) VH: QVQLVESGGGLVKPGGSLRLSCAASGFTFSDYSMSWIRQAPGKGLEWVSTISDSGSTIYYADSVKGRFTISRDNAKNSLYLQMNSLRAEDTAVYYCAREWGDYDGFDFWGQGTLVTVSS VL: DIQMTQSPSSLSASVGDRVTITCRASQSISSYLSWYQQKPGKAPKLLIYAASSLQSGVPSRFSGSGSGTDFTLTISSLQPEDFATYYCLQYDSTPLTFGGGTKVEIK
# output 0.85
